test.protocol: Cytotoxicity against mouse J774.A1 cells assessed as cell viability at 10 uM incubated for 4 hrs by MTT assay relative to control
Format: toxicity, cell-based
experimental.setup: J774.A1 cells, read-out: Activity
metric.name: viability at 4 h, 10 µM

>>> assay_result("CC(C)(C)c1coc(S(=O)(=O)NC(=O)Nc2c3c(cc4c2CCC4)CCC3)c1")
"94.9%"

---

measured.target: NACHT, LRR and PYD domains-containing protein 3 (Mus musculus)
Sequence (Q8R4B8 whole entry, the tested form may be a part): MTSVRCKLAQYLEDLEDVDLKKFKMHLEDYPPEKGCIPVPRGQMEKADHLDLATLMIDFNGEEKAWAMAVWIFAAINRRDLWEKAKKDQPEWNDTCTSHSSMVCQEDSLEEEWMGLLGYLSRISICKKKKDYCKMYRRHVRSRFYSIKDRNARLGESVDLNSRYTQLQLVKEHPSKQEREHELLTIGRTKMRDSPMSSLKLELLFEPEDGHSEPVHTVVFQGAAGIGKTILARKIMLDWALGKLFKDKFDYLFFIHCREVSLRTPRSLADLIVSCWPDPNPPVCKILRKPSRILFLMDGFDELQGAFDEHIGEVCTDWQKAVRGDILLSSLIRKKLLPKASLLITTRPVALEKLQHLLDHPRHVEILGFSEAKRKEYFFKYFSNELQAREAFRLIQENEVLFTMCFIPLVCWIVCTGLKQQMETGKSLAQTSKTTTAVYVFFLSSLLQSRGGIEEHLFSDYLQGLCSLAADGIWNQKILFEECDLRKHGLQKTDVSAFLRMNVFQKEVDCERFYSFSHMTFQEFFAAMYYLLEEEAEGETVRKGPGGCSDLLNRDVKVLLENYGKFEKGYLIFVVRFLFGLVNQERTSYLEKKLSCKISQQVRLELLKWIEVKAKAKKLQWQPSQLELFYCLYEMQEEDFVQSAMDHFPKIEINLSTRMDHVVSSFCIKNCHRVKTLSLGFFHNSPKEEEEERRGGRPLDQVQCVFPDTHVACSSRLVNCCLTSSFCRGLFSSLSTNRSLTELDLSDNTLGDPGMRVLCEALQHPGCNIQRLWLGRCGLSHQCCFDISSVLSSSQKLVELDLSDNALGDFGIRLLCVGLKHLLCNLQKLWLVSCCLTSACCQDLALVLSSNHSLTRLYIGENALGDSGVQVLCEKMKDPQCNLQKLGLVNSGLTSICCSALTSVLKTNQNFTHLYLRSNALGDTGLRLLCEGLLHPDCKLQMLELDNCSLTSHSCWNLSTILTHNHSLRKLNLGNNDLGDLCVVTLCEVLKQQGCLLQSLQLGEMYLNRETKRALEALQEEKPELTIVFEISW
test.protocol: Inhibition of NLRP3 inflammasome in LPS-primed mouse J774.A1 cells assessed as reduction in IL-1beta secretion preincubated for 30 mins followed by ATP addition and measured after 30 mins by ELISA
Type: cell-based
Label Yes when IC50 < 300 nM; otherwise No.

>>> class_name("CCCOc1ccc(Cl)cc1CN(CCc1ccc(S(=O)(=O)N2CCOCC2)cc1)C(=O)Cc1ccsc1")
"No"
>>> class_name("C#CCNS(=O)(=O)c1ccc(CCN(Cc2ccccc2OCCC)C(=O)Cc2ccsc2)cc1")
"No"
>>> class_name("C#CCN(C)S(=O)(=O)c1ccc(CCN(Cc2cc(Cl)ccc2OCCC)C(=O)Cc2ccsc2)cc1")
"No"
>>> class_name("C#CCNS(=O)(=O)c1ccc(CCN(Cc2cc(Cl)ccc2OCC#C)C(=O)Cc2ccsc2)cc1")
"Yes"
>>> class_name("C#CCNS(=O)(=O)c1ccc(CCN(Cc2ccco2)C(=O)Cc2ccsc2)cc1")
"No"
